Organism: Cavia porcellus
Experiment: Inhibitory potency was evaluated using strips of guinea pig ileum (GPI) longitudinal muscle-myenteric plexus.
Format: functional, organism-based
Could you please report measured IC50 for the items listed next?
Numbers only; they are read as µM.

# input Recorded IC50 for CC1(C)SSC(C)(C)[C@@H](NC(=O)[C@@H](N)Cc2ccc(O)cc2)C(=O)NCC(=O)N[C@@H](Cc2ccc(Br)cc2)C(=O)N[C@H]1C(=O)O , please?
# output 13.4

# input Fill blank: measured IC50 of the compound CC1(C)SSC(C)(C)[C@@H](NC(=O)[C@@H](N)Cc2ccc(O)cc2)C(=O)NCC(=O)N[C@@H](Cc2ccc(Cl)cc2)C(=O)N[C@H]1C(=O)O is ____.
# output 4.83

# input Dear colleague, I am looking for the recorded IC50 of the following compound: CC1(C)SSC(C)(C)[C@@H](NC(=O)[C@@H](N)Cc2ccc(O)cc2)C(=O)NCC(=O)N[C@@H](Cc2ccc(I)cc2)C(=O)N[C@H]1C(=O)O
# output 46.1

# input // lookup IC50 for CC1(C)SSC(C)(C)[C@@H](NC(=O)[C@@H](N)Cc2ccc(O)cc2)C(=O)NCC(=O)N[C@@H](Cc2ccc(F)cc2)C(=O)N[C@H]1C(=O)O
# output 5.03
